# Target Under Test: TNKS1 (Homo sapiens)
# Construct: GST-tagged Tnks-1 (1023-1327 aa, prepared in-house); made in house
# Sequence (O95271 1023-1327): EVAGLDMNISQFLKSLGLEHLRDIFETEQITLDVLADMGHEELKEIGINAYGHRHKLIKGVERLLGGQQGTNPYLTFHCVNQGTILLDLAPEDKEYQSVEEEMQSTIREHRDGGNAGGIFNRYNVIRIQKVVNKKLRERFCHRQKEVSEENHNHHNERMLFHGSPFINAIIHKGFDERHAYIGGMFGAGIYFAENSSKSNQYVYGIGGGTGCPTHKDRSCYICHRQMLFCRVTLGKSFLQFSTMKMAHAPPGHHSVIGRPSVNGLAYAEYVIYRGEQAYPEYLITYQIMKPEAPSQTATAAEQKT
# Test Summary: TNKS1 activity ELISA (autoparsylation assay)
# Assay type: biochemical
# Experimental Context: GST-tagged Tnks-1 (1023-1327 aa)
Decision: IC50 beneath 0.2 nM gives label 1; IC50 meeting or exceeding 0.2 nM gives label 0.

Example results:
| Item Smiles | Target Under Test | Classification |
| --- | --- | --- |
| Cc1scc2c(=O)[nH]c(CCCC(=O)N3CCC(C(=O)c4cnn(C(C)C)c4)CC3)nc12 | TNKS1 (Homo sapiens) | label 0 |
| Cc1cc2c(=O)[nH]c(CCCC(=O)N3CCC(c4cnc(N)c(C#N)c4)CC3)nn2c1 | TNKS1 (Homo sapiens) | label 0 |

In plain terms, does COc1ccc(C(=O)C2CCN(C(=O)CCCc3nn4cc(C)cc4c(=O)[nH]3)CC2)cc1 come in under 0.2 nM for IC50?
label 0

Another compound to look at: CCn1cc(C(=O)C2CCN(C(=O)CCCc3nn4cc(C)cc4c(=O)[nH]3)CC2)cn1
label 0

Another compound to look at: COc1ccc(C(=O)C2CCN(C(=O)CCCc3nc4c(ccn4C)c(=O)[nH]3)CC2)cc1F
label 1

Another compound to look at: Cc1ccc2c(=O)[nH]c(CCCC(=O)N3CCC(C(=O)c4ccc(F)cc4)CC3)nn12
label 1

---

# Test Summary: Solubility pH 7.4
# Assay type: physicochemical
# Experimental Context: pH 7.4, aqueous buffer
# label = Met if solubility >= 70 µg/mL else Not met

Example results:
| Compound | Classification |
| --- | --- |
| Cn1ncc2c(=O)[nH]c(CCCC(=O)N3CCC(C(=O)c4ccc(F)cc4)CC3)nc21 [Compound C48] | Met |
| COc1ccc(C(=O)C2CCN(C(=O)CCCc3nc4c(cnn4C)c(=O)[nH]3)CC2)cc1 [Compound C41] | Not met |
| COc1ccc(C(=O)C2CCN(C(=O)CCCc3nc4c(cnn4C)c(=O)[nH]3)CC2)cc1F [Compound C42] | Met |

Textbook exercise: given the entry Cn1cc(C(=O)C2CCN(C(=O)CCCc3cn4c(F)ccc4c(=O)[nH]3)CC2)cn1 [Compound C208] , state whether its solubility is greater than or equal to 70 µg/mL.
Met

Another compound to look at: Cn1ncc2c(=O)[nH]c(CCCC(=O)N3CCC(c4cnc(N)c(-c5ncccn5)c4)CC3)nc21 [Compound C45]
Not met

Another compound to look at: COc1ccc(C(=O)C2CCN(C(=O)CCCc3nc4ccccc4c(=O)[nH]3)CC2)cc1 [Compound A1, reference compound]
Not met

---

For each of the compounds below, state its IC50.
# Target Under Test: PARP-1 (Homo sapiens, UniProt P09874)
# Construct: purchased Enzo Life Sciences GmbH, Lörrach, Germany
# Sequence (P09874 whole entry): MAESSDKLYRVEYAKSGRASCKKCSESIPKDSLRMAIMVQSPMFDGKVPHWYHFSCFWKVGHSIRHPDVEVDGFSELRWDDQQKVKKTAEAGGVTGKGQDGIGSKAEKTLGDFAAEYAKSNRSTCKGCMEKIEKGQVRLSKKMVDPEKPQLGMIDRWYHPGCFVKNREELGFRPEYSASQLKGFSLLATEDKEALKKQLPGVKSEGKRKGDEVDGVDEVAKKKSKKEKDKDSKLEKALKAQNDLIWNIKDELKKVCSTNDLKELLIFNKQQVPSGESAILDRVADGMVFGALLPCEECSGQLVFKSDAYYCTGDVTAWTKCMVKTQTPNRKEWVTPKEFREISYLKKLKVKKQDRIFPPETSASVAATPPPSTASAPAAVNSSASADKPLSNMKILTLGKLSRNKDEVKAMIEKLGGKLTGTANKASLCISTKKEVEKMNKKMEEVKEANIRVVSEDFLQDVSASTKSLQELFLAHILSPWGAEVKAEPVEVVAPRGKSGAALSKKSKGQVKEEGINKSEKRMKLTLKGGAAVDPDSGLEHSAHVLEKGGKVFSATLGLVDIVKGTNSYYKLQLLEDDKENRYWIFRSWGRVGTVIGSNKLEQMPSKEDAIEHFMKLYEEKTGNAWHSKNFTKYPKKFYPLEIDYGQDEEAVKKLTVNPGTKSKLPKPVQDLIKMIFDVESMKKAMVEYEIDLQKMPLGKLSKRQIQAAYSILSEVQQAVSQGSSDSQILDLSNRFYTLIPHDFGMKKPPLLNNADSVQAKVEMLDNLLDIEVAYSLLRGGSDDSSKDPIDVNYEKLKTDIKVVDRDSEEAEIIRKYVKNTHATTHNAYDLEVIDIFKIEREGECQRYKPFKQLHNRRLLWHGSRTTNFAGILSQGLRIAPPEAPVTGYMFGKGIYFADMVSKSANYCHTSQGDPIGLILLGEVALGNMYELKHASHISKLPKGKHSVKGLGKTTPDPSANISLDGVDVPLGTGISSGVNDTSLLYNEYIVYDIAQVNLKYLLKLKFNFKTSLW
# Test Summary: PARP-1 autoparsylation assay (HTRF)
# Format: biochemical
# Experimental Context: His-tagged Parp-1, autoparsylation HTRF
Counter-ions that a name gives are not always drawn.

The cases that follow already have their IC50 on record.
| Compound | IC50 |
| --- | --- |
| Cc1scc2c(=O)[nH]c(CCCC(=O)N3CCC(Oc4ccc(C#N)cc4)CC3)nc12 | 850 nM |
| Nc1ncc(C2CCN(C(=O)CCCc3nc4c(c(=O)[nH]3)COCC4)CC2)cc1-c1ncccn1 | 3300 nM |

Parameter requested: IC50. Apply to each item below.
1. N#Cc1cc(C2CCN(C(=O)CCCc3nn4cccc4c(=O)[nH]3)CC2)cnc1N
2. Cc1ccc2c(=O)[nH]c(CCCC(=O)N3CCC(c4cnc(N)c(-c5ncccn5)c4)CC3)nn12
3. COc1ccc(C(=O)C2CCN(C(=O)CCCc3cn4c(C)ccc4c(=O)[nH]3)CC2)cn1
4. CCn1cc(C(=O)C2CCN(C(=O)CCCc3nn4cc(C)cc4c(=O)[nH]3)CC2)cn1
5. Cc1scc2c(=O)[nH]c(CCCC(=O)N3CCC(c4cnc(N)c(C#N)c4)CC3)nc12 [Compound C115, trifluoroacetate]

["3200 nM", "1300 nM", "0.48 nM", "5300 nM", "570 nM"]

Parameter requested: IC50. Apply to each item below.
1. Cn1cc(C(=O)C2CCN(C(=O)CCCc3cn4cccc4c(=O)[nH]3)CC2)cn1
2. COc1ccc(C(=O)C2CCN(C(=O)CCCc3cn4c(Cl)ccc4c(=O)[nH]3)CC2)cc1
3. Cc1ccc2c(=O)[nH]c(CCCC(=O)N3CCC(Oc4ccc(C#N)cc4)CC3)cn12

1. 5200 nM
2. 2700 nM
3. 1800 nM
